Values were extracted from patent US20090175866A1.

Target System: FGFR3 (Homo sapiens, UniProt P22607)
Sequence (P22607 23-806): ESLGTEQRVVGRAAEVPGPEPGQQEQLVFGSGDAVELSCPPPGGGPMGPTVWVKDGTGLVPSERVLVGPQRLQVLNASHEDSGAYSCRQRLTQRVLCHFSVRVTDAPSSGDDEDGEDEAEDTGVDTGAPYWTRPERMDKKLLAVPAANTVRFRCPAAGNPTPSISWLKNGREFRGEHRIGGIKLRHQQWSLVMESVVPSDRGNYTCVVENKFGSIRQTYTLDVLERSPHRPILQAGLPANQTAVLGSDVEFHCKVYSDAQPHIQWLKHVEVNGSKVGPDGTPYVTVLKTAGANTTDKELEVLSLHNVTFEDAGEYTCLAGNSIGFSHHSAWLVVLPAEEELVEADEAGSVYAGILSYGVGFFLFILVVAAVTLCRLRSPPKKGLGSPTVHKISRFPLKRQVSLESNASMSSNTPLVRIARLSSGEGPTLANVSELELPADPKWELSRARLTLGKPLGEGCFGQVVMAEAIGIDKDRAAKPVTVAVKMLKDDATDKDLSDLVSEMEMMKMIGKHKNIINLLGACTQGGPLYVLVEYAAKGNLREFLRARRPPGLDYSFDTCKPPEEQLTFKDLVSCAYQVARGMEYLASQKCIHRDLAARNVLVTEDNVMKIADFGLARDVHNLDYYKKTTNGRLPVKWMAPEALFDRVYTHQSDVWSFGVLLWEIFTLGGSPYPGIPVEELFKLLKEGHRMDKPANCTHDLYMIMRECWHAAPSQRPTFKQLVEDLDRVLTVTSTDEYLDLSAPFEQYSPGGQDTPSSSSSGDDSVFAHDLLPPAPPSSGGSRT
Assay Summary: Affinity and Koff to FGFR3 measured by BIAcore
Assay type: binding
Provide the reported pKd of each item.
Answers are plain numbers, as −log10 of the molar value.

{"Molecule": "PRO-055: HuCAL anti-FGFR3 clone; VH-CDR3 SEQ ID NO:9, VL-CDR3 SEQ ID NO:18 (antibody, V domains shown) VH: QVQLVQSGAEVKKPGASVKVSCKASGYTFTSYYMHWVRQAPGQGLEWMGWINPNSGGTNYAQKFQGRVTMTRDTSISTAYMELSSLRSEDTAVYYCARSMNSTMYWYLRRVLFDHWGQGTLVTVSS VL: DIALTQPASVSGSPGQSITISCTGTSSDVGGYNYVSWYQQHPGKAPKLMIYDVSNRPSGVSNRFSGSKSGNTASLTISGLQAEDEADYYCQSYDMYNYIVFGGGTKLTVLGQ", "pKd": 8.54}
{"Molecule": "PRO-054: HuCAL anti-FGFR3 clone; VH-CDR3 SEQ ID NO:8, VL-CDR3 SEQ ID NO:17 (antibody, V domains shown) VH: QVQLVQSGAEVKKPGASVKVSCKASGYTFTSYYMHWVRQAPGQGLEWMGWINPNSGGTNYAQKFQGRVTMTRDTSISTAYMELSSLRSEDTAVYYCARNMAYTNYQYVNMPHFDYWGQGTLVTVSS VL: DIELTQPPSVSVAPGQTARISCSGDALGDKYASWYQQKPGQAPVLVIYDDSDRPSGIPERFSGSNSGNTATLTISGTQAEDEADYYCQSYDYFKLVFGGGTKLTVLGQ", "pKd": 8.43}
{"Molecule": "PRO-002: HuCAL anti-FGFR3 clone; VH-CDR3 SEQ ID NO:2, VL-CDR3 SEQ ID NO:11 (antibody, V domains shown) VH: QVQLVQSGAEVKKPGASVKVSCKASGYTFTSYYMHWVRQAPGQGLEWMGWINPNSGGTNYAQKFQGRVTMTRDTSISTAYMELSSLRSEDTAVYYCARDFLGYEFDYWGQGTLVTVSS VL: DIELTQPPSVSVAPGQTARISCSGDALGDKYASWYQQKPGQAPVLVIYDDSDRPSGIPERFSGSNSGNTATLTISGTQAEDEADYYCQSYDYSADYVFGGGTKLTVLGQ", "pKd": 7.43}

Could you now look at the following molecule, please?
The value of pKd measured for the molecule PRO-001: human anti-FGFR3 Fab from HuCAL library; VH-CDR3 SEQ ID NO:1, VL-CDR3 SEQ ID NO:10; VH SEQ ID NO:19, VL SEQ ID NO:28 (antibody, V domains shown) VH: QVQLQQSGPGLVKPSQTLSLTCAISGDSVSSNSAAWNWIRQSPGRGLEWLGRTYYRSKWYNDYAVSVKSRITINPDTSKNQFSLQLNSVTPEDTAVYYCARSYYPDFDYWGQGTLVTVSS VL: DIELTQPPSVSVAPGQTARISCSGDALGDKYASWYQQKPGQAPVLVIYDDSDRPSGIPERFSGSNSGNTATLTISGTQAEDEADYYCQSYDGPDLWVFGGGTKLTVLGQ turned out to be 8.82
